system: 843782-103-R-J1-PDC complex spheroid viability; experiment: Anticancer human tumor 843782-103-R-J1-PDC patient-derived lung adenocarcinoma cell line growth inhibition [RAS]; settings: second compound 0.3 µM; first compound 3.16 µM; active compounds read low
measurement.name: viability, T/C (%)
Hi! Could you send only the number? It should be in %, unit omitted.

Enquiry: Give the measured viability, T/C of CCC(CC)c1cc(NC2CCC(N)C2)n2nccc2n1 (stereo not drawn) + CCn1c(-c2cccnc2C(C)OC)c2c3cc(ccc31)N1CCOC(CC(NC(=O)C(C(C)C)N(C)C(=O)C3(F)CCN(C(=O)C#CC(C)(C)N(C)C)CC3)C(=O)N3CCCC(N3)C(=O)OCC(C)(C)C2)C1 .
Return: 1.4

Enquiry: Queued: CC(Nc1ccc2c(c1)OCCn1cc(N3C(=O)OCC3C(F)F)nc1-2)C(N)=O (stereo not drawn) + CCn1c(-c2cc(N3CCN(C)CC3)cnc2C(C)OC)c2c3cc(ccc31)-c1csc(n1)CC(NC(=O)C1CC1C)C(=O)N1CCCC(N1)C(=O)OCC(C)(C)C2
Return: 5.53

Enquiry: Queued: CC(Nc1ccc2c(c1)OCCn1cc(N3C(=O)OCC3C(F)F)nc1-2)C(N)=O (stereo not drawn) + CCn1c(-c2cccnc2C(C)OC)c2c3cc(ccc31)N1CCOC(CC(NC(=O)C(C(C)C)N(C)C(=O)C3(F)CCN(C(=O)C#CC(C)(C)N(C)C)CC3)C(=O)N3CCCC(N3)C(=O)OCC(C)(C)C2)C1
Return: 10.7

Enquiry: Queued: CC(C)NCC(C(=O)N1CCN(c2ncnc3c2C(C)CC3O)CC1)c1ccc(Cl)cc1 (stereo not drawn) + CCn1c(-c2cc(N3CCN(C)CC3)cnc2C(C)OC)c2c3cc(ccc31)-c1csc(n1)CC(NC(=O)C1CC1C)C(=O)N1CCCC(N1)C(=O)OCC(C)(C)C2
Return: 3.93

Enquiry: Queued: CC1(O)CCCC1n1c(=O)c(C(F)F)cc2cnc(NC3CCN(S(C)(=O)=O)CC3)nc21 (stereo not drawn) + CCn1c(-c2cccnc2C(C)OC)c2c3cc(ccc31)N1CCOC(CC(NC(=O)C(C(C)C)N(C)C(=O)C3(F)CCN(C(=O)C#CC(C)(C)N(C)C)CC3)C(=O)N3CCCC(N3)C(=O)OCC(C)(C)C2)C1
Return: 19.4

Enquiry: Queued: Cc1nc(N2CCC3(CC2)COC(C)C3N)c(CO)nc1Sc1ccnc(N)c1Cl (stereo not drawn) + CCn1c(-c2cccnc2C(C)OC)c2c3cc(ccc31)N1CCOC(CC(NC(=O)C(C(C)C)N(C)C(=O)C3(F)CCN(C(=O)C#CC(C)(C)N(C)C)CC3)C(=O)N3CCCC(N3)C(=O)OCC(C)(C)C2)C1
Return: 20.8

Enquiry: Queued: C[C@@H](NC(=O)c1ncnc(N)c1Cl)c1ncc(C(=O)Nc2cc(C(F)(F)F)c(Cl)cn2)s1 + CCn1c(-c2cc(N3CCN(C)CC3)cnc2C(C)OC)c2c3cc(ccc31)-c1csc(n1)CC(NC(=O)C1CC1C)C(=O)N1CCCC(N1)C(=O)OCC(C)(C)C2
Return: 19.6

Enquiry: Queued: CCC(CC)c1cc(NC2CCC(N)C2)n2nccc2n1 (stereo not drawn) + CCn1c(-c2cc(N3CCN(C)CC3)cnc2C(C)OC)c2c3cc(ccc31)-c1csc(n1)CC(NC(=O)C1CC1C)C(=O)N1CCCC(N1)C(=O)OCC(C)(C)C2
Return: 0.25

* * *

tested on: 843782-103-R-J1-PDC complex spheroid viability; test: Anticancer human tumor 843782-103-R-J1-PDC cell line growth inhibition [RAS]; conditions: second compound 0.000949 µM; first compound 10 µM; active = viability on the fitted dose curve at most 10% of control; inactive = the rest;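 note: viability read after seven days of compound exposure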
Choose one outcome from this list and give only that: active, inactive

Enquiry: What did this assay record as the result for CC(=O)OC12COC1CC(O)C1(C)C(=O)C(O)C3=C(C)C(OC(=O)C(O)C(NC(=O)OC(C)(C)C)c4ccccc4)CC(O)(C(OC(=O)c4ccccc4)C21)C3(C)C (stereo unspecified) + CCn1c(-c2cccnc2C(C)OC)c2c3cc(ccc31)N1CCOC(CC(NC(=O)C(C(C)C)N(C)C(=O)C3(F)CCN(C(=O)C#CC(C)(C)N(C)C)CC3)C(=O)N3CCCC(N3)C(=O)OCC(C)(C)C2)C1 ?
Return: active

Enquiry: Queued: CC(=O)OC12COC1CC(O)C1(C)C(=O)C(O)C3=C(C)C(OC(=O)C(O)C(NC(=O)OC(C)(C)C)c4ccccc4)CC(O)(C(OC(=O)c4ccccc4)C21)C3(C)C (stereo unspecified) + CCn1c(-c2cc(N3CCN(C)CC3)cnc2C(C)OC)c2c3cc(ccc31)-c1csc(n1)CC(NC(=O)C1CC1C)C(=O)N1CCCC(N1)C(=O)OCC(C)(C)C2
Return: active

Enquiry: Queued: CC1(O)CCCC1n1c(=O)c(C(F)F)cc2cnc(NC3CCN(S(C)(=O)=O)CC3)nc21 (stereo unspecified) + CCn1c(-c2cccnc2C(C)OC)c2c3cc(ccc31)N1CCOC(CC(NC(=O)C(C(C)C)N(C)C(=O)C3(F)CCN(C(=O)C#CC(C)(C)N(C)C)CC3)C(=O)N3CCCC(N3)C(=O)OCC(C)(C)C2)C1
Return: active

Enquiry: Queued: Cc1nc(N2CCC3(CC2)COC(C)C3N)c(CO)nc1Sc1ccnc(N)c1Cl (stereo unspecified) + CCn1c(-c2cc(N3CCN(C)CC3)cnc2C(C)OC)c2c3cc(ccc31)-c1csc(n1)CC(NC(=O)C1CC1C)C(=O)N1CCCC(N1)C(=O)OCC(C)(C)C2
Return: inactive

Enquiry: Queued: Cc1nc(N2CCC3(CC2)COC(C)C3N)c(CO)nc1Sc1ccnc(N)c1Cl (stereo unspecified) + CCn1c(-c2cccnc2C(C)OC)c2c3cc(ccc31)N1CCOC(CC(NC(=O)C(C(C)C)N(C)C(=O)C3(F)CCN(C(=O)C#CC(C)(C)N(C)C)CC3)C(=O)N3CCCC(N3)C(=O)OCC(C)(C)C2)C1
Return: inactive

Enquiry: Queued: C[C@@H](NC(=O)c1ncnc(N)c1Cl)c1ncc(C(=O)Nc2cc(C(F)(F)F)c(Cl)cn2)s1 + CCn1c(-c2cc(N3CCN(C)CC3)cnc2C(C)OC)c2c3cc(ccc31)-c1csc(n1)CC(NC(=O)C1CC1C)C(=O)N1CCCC(N1)C(=O)OCC(C)(C)C2
Return: inactive

* * *

tested on: 843782-103-R-J1-PDC complex spheroid viability; assay: Anticancer human tumor 843782-103-R-J1-PDC cell line growth inhibition [RAS]; conditions: second compound 0.0949 µM; first compound 3.16 µM; active compounds read low;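 note: viability read after seven days of compound exposure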
With a cut-off of 10%, any viability, T/C strictly below it is called Y; any viability, T/C meeting it or above is called N.

Enquiry: Record Cc1nc(N2CCC3(CC2)COC(C)C3N)c(CO)nc1Sc1ccnc(N)c1Cl (centres undefined) + CCn1c(-c2cccnc2C(C)OC)c2c3cc(ccc31)N1CCOC(CC(NC(=O)C(C(C)C)N(C)C(=O)C3(F)CCN(C(=O)C#CC(C)(C)N(C)C)CC3)C(=O)N3CCCC(N3)C(=O)OCC(C)(C)C2)C1 : is its viability, T/C strictly below 10%?
Return: N

Enquiry: Queued: CC(C)NCC(C(=O)N1CCN(c2ncnc3c2C(C)CC3O)CC1)c1ccc(Cl)cc1 (centres undefined) + CCn1c(-c2cccnc2C(C)OC)c2c3cc(ccc31)N1CCOC(CC(NC(=O)C(C(C)C)N(C)C(=O)C3(F)CCN(C(=O)C#CC(C)(C)N(C)C)CC3)C(=O)N3CCCC(N3)C(=O)OCC(C)(C)C2)C1
Return: N

Enquiry: Queued: CC1(O)CCCC1n1c(=O)c(C(F)F)cc2cnc(NC3CCN(S(C)(=O)=O)CC3)nc21 (centres undefined) + CCn1c(-c2cc(N3CCN(C)CC3)cnc2C(C)OC)c2c3cc(ccc31)-c1csc(n1)CC(NC(=O)C1CC1C)C(=O)N1CCCC(N1)C(=O)OCC(C)(C)C2
Return: N

Enquiry: Queued: CC(Nc1ccc2c(c1)OCCn1cc(N3C(=O)OCC3C(F)F)nc1-2)C(N)=O (centres undefined) + CCn1c(-c2cc(N3CCN(C)CC3)cnc2C(C)OC)c2c3cc(ccc31)-c1csc(n1)CC(NC(=O)C1CC1C)C(=O)N1CCCC(N1)C(=O)OCC(C)(C)C2
Return: Y

Enquiry: Queued: C[C@@H](NC(=O)c1ncnc(N)c1Cl)c1ncc(C(=O)Nc2cc(C(F)(F)F)c(Cl)cn2)s1 + CCn1c(-c2cc(N3CCN(C)CC3)cnc2C(C)OC)c2c3cc(ccc31)-c1csc(n1)CC(NC(=O)C1CC1C)C(=O)N1CCCC(N1)C(=O)OCC(C)(C)C2
Return: N

Enquiry: Queued: CCC(CC)c1cc(NC2CCC(N)C2)n2nccc2n1 (centres undefined) + CCn1c(-c2cc(N3CCN(C)CC3)cnc2C(C)OC)c2c3cc(ccc31)-c1csc(n1)CC(NC(=O)C1CC1C)C(=O)N1CCCC(N1)C(=O)OCC(C)(C)C2
Return: Y

Enquiry: Queued: CC(=O)OC12COC1CC(O)C1(C)C(=O)C(O)C3=C(C)C(OC(=O)C(O)C(NC(=O)OC(C)(C)C)c4ccccc4)CC(O)(C(OC(=O)c4ccccc4)C21)C3(C)C (centres undefined) + CCn1c(-c2cc(N3CCN(C)CC3)cnc2C(C)OC)c2c3cc(ccc31)-c1csc(n1)CC(NC(=O)C1CC1C)C(=O)N1CCCC(N1)C(=O)OCC(C)(C)C2
Return: Y

Enquiry: Queued: Cc1nc(N2CCC3(CC2)COC(C)C3N)c(CO)nc1Sc1ccnc(N)c1Cl (centres undefined) + CCn1c(-c2cc(N3CCN(C)CC3)cnc2C(C)OC)c2c3cc(ccc31)-c1csc(n1)CC(NC(=O)C1CC1C)C(=O)N1CCCC(N1)C(=O)OCC(C)(C)C2
Return: N

Enquiry: Queued: NC1c2ccccc2OC12CCN(c1cnc3c(N4CCCc5ncccc54)n[nH]c3n1)CC2 (centres undefined) + CCn1c(-c2cc(N3CCN(C)CC3)cnc2C(C)OC)c2c3cc(ccc31)-c1csc(n1)CC(NC(=O)C1CC1C)C(=O)N1CCCC(N1)C(=O)OCC(C)(C)C2
Return: N

// data source = PubChem BioAssay AID2060883
